The origin of these recorded values is patent US20190064177A1.

EXPERIMENTAL SYSTEM: Diaphorase
TEST SUMMARY: peptide array, 10 uM labeled diaphorase, with FAD
MEASUREMENT KIND: fluorescence
No unit in the answer, only the number.

INSERT INTO results (binder, recorded_number) VALUES
  ('VERASYNLDGSG', 3370),
  ('RPLQVQRGGS', 41100),
  ('VVQALFDGSG', 21200),
  ('YRFPNAQSPGGSG', 37700),
  ('VKDGANKHYWRVSGSG', 17800),
  ('RSHPKHNVGSG', 12200);

What the record says about YVWGLELSGGSG : fluorescence is 36300

What the record says about YRFQSGLPAKDGSG : fluorescence is 20200

What the record says about YRNAAWFSGGSG : fluorescence is 43300

What the record says about RFGQNLPLGGSG : fluorescence is 34700
